METHOD_DESCRIPTION: Quantitative High-Throughput drug screen in 47 multiple myeloma cell lines against the NCATS MIPE library collection: XG6_PLB cell viability assay (AID 1919865); also: nearly all actives have a fitted effect of over 40% in size
MEASUREMENT_CONTEXT: XG6 myeloma viability, CellTiter-Glo ATP luminescence, 48 h; series mostly up to 45.8 µM
Records with an inconclusive call do not appear. Active and inactive are the calls of the source. Calls follow the shape of the dose curve; as a rule, active = well fitted cell-killing curve with a large enough effect; inconclusive = small, poorly fitted or top-dose-only effect, or effect the other way; inactive = no such curve, though single readings can be large or run the other way. Non-standard residues stand in square brackets, D forms with d. Residues, ends and D or L forms follow the SMILES beside them. *: point of attachment. Sta = CC(C)C[C@H](N)[C@@H](O)CC(=O)O; Isovaleryl = CC(C)CC(=O)*
Outcome (select one): active, inactive

Field: example entries. Status: answers known.
COMPOUND	CLASSIFICATION
CCC(C)(Oc1ccc(C2(c3ccc(OC(C)(CC)C(=O)O)cc3)CCCCC2)cc1)C(=O)O (stereo unspecified)	inactive
CNC[C@H](O)c1ccc(O)c(O)c1	inactive
CC1(C)NC(=O)N(c2ccc([N+](=O)[O-])c(C(F)(F)F)c2)C1=O	inactive
COC(=O)C1=C(C)NC(C)=C(C(=O)OCCCN2CCC(c3ccccc3)(c3ccccc3)CC2)C1c1cccc([N+](=O)[O-])c1 (stereo unspecified)	inactive
CS(=O)(=O)OCCCCOS(C)(=O)=O	inactive

Input: Please state the recorded outcome for this compound: CC(S)C(=O)NCC(=O)O (stereo unspecified)
Output: inactive

Input: Please state the recorded outcome for this compound: O=C(NOCC1CC1)c1ccc(F)c(F)c1Nc1ccc(I)cc1Cl
Output: active

Input: Please state the recorded outcome for this compound: Clc1ccc(C(Cn2ccnc2)OCc2c(Cl)cccc2Cl)c(Cl)c1 (stereo unspecified)
Output: active

Input: Please state the recorded outcome for this compound: Cc1cccc(-c2[nH]ncc2-c2ccc3ncccc3n2)n1
Output: inactive

Input: Please state the recorded outcome for this compound: CC(C)CC(=O)N[C@H](C(=O)N[C@H](C(=O)N[C@@H](CC(C)C)[C@@H](O)CC(=O)N[C@@H](C)C(=O)N[C@@H](CC(C)C)[C@@H](O)CC(=O)O)C(C)C)C(C)C (Isovaleryl-VV[Sta]A[Sta]-OH)
Output: inactive

Input: Please state the recorded outcome for this compound: CCN(CCO)CCCC(C)Nc1ccnc2cc(Cl)ccc12 (stereo unspecified)
Output: inactive

Input: Please state the recorded outcome for this compound: CC1=C(C)C(=O)C(C(CCCCCC(=O)O)c2ccccc2)=C(C)C1=O (stereo unspecified)
Output: inactive

Input: Please state the recorded outcome for this compound: Cc1ccc(C)c(OCCCC(C)(C)C(=O)O)c1
Output: active

Input: Please state the recorded outcome for this compound: COC(=O)C1=C(C)NC(C)=C(C(=O)OC(C)C)C1c1cccc2nonc12 (stereo unspecified)
Output: active

Input: Please state the recorded outcome for this compound: O=C(CCc1ccc(O)cc1)c1c(O)cc(O)cc1O
Output: active

Input: Please state the recorded outcome for this compound: COc1cc2c(N3CCN(C(=O)Nc4ccc(OC(C)C)cc4)CC3)ncnc2cc1OCCCN1CCCCC1
Output: active

Input: Please state the recorded outcome for this compound: CCOC(=O)C1=C[C@@H](OC(CC)CC)[C@H](NC(C)=O)[C@@H](N)C1
Output: inactive

Input: Please state the recorded outcome for this compound: O=C(NCC1CCCCN1)c1cc(OCC(F)(F)F)ccc1OCC(F)(F)F (stereo unspecified)
Output: active

Input: Please state the recorded outcome for this compound: C[C@@H](N)C1CCC(C(=O)Nc2ccncc2)CC1 (stereo partly specified)
Output: active

Input: Please state the recorded outcome for this compound: COCCCOc1ccnc(CS(=O)c2nc3ccccc3[nH]2)c1C (stereo unspecified)
Output: active

Input: Please state the recorded outcome for this compound: Nc1nc(N)c(N=O)c(OCC2CCCCC2)n1
Output: active
